experiment: Solubility testing in FaSSIF, FeSSIF and SGF (37°C, HPLC of filtrate); format: physicochemical; conditions: simulated gastric fluid, thermodynamic from solid; SGF, 37°C, 2 h; read-out: Solubility (mg/mL) 2 h
Readout: solubility at 2 h (mg/mL)
Just the number please, in mg/mL, no unit attached.

In plain terms, COc1cc(Nc2ccc3ncc(N4CCOCC4)nc3c2C#N)ccc1OCc1ccc(C)nc1 has a documented solubility at 2 h of 0.524

====

test: Solubility testing in FaSSIF, FeSSIF and SGF (37°C, HPLC of filtrate); assay type: physicochemical; conditions: thermodynamic from solid; FeSSIF, 37°C, 2 h; read-out: Solubility (mg/mL) 2 h
Readout: solubility at 2 h (mg/mL)
Write the number in mg/mL without appending the unit.

Lab book: solubility at 2 h of COc1cc(Nc2ccc3ncc(N4CCOCC4)nc3c2C#N)ccc1OCc1ccc(C)nc1 noted as 0.00293

====

test: Solubility testing in FaSSIF, FeSSIF and SGF (37°C, HPLC of filtrate); type: physicochemical; settings: simulated gastric fluid, thermodynamic from solid; SGF, 37°C, 0.5 h; read-out: Solubility (mg/mL) 0.5 h
Readout: solubility at 0.5 h (mg/mL)
Quick reminder: number only, in mg/mL, skip the unit.

The molecule COc1cc(Nc2ccc3ncc(N4CCOCC4)nc3c2C#N)ccc1OCc1ccc(C)nc1 showed solubility at 0.5 h equal to 0.699

====

assay: Solubility testing in FaSSIF, FeSSIF and SGF (37°C, HPLC of filtrate); format: physicochemical; details: thermodynamic from solid; FaSSIF, 37°C, 0.5 h; read-out: Solubility (mg/mL) 0.5 h
Readout: solubility at 0.5 h (mg/mL)
Answer format: numeric, mg/mL implied, no suffix.

Entry COc1cc(Nc2ccc3ncc(N4CCOCC4)nc3c2C#N)ccc1OCc1ccc(C)nc1 — recorded solubility at 0.5 h = 0.00026
